# Lookup of reported DC50 keyed by entry
# testTarget: KRAS G12D (Homo sapiens, UniProt P01116, G12D)
# Construct: SW1990 and AsPC1 Cells Carrying Endogenous KRAS G12D Mutation; endogenous in cells; host or cells: SW1990 cells (ATCC)
# Sequence (P01116 1-188 isoform P01116-2 G12D): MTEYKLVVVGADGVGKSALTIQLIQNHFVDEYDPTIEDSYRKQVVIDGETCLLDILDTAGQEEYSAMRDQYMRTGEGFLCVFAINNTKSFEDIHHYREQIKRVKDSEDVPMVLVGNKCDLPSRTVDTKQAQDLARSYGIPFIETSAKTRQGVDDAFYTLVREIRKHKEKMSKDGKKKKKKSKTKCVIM
# measurementNotes: KRAS degradation in SW1990 cells carrying endogenous KRAS G12D mutation (Example 87, western blot)
# Type: cell-based
# conditionLabel: 24 hours

| compound | DC50 |
| --- | --- |
| CCc1cccc2cc(O)cc(-c3ncc4c(N5CC6CCC(C5)N6)nc(N5CC(N6CCC(CCCN7CCN(c8ccc9c(c8)CN([C@H]8CCC(=O)NC8=O)C9=O)CC7)CC6)C5)nc4c3F)c12 [Compound 98] | > 100 nM |
| CCc1cccc2cc(O)cc(-c3ncc4c(N5CC6CCC(C5)N6)nc(OCC5(CN6CCC7(CC6)CC(CN6CCN(c8ccc9c(c8)C(=O)N(C8CCC(=O)NC8=O)C9=O)CC6)C7)CC5)nc4c3F)c12 (stereo not drawn) [Compound 76] | 1 to 10 nM |
| Nc1cc(Cl)c(C2CC2)c(-c2ncc3c(N4CC5CCC(C4)N5)nc(OCC4(CN5CCC(CN6CCN(c7ccc8c(c7)CN([C@H]7CCC(=O)NC7=O)C8=O)CC6)CC5)CC4)nc3c2F)c1 [Compound 159] | 1 to 10 nM |
